Target: T1, cynomolgus monkey GPVI (full-length) expressed on stably transfected CHO cells (cynomolgus monkey, UniProt Q9HCN6 21-339 (human entry))
T1 chain: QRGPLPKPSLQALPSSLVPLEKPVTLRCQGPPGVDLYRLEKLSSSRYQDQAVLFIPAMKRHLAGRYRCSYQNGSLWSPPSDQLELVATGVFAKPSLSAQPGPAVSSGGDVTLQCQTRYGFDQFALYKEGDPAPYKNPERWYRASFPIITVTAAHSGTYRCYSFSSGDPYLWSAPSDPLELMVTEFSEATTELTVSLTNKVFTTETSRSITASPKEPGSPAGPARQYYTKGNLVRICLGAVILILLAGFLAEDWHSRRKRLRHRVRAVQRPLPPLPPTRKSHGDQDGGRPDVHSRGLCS
Test: Cell ELISA (MSD) on CHO cells expressing GPVI
Protocol: CHO cells stably transfected with either human, cynomolgus monkey, or mouse GPVI (SEQ ID NO: 1, SEQ ID NO: 2, SEQ ID NO: 3, respectively and as described in Example 1) were seeded at a density of 5000 cells/well in growth medium on a 96 well high bind plate (Meso Scale Discovery) and cultivated overnight at 37° C. and 5% CO2. […] After washing, bound Fab was detected using ECL-conjugated detection antibody directed against human F(ab′)2 fragment (Jackson Immuno Research). […]
Entries and their pEC50 values follow.
To interpret pEC50, take it as minus log10 of a concentration measured in moles per litre.

BINDER	RESULT TYPE	NUMERIC READOUT
Fab #3 comprising a modified heavy chain constant region (Fab, V domains shown, Human Fab from the Ylanthia library; produced in HKB11 cells; also called Fab #3 mod; HC) VH: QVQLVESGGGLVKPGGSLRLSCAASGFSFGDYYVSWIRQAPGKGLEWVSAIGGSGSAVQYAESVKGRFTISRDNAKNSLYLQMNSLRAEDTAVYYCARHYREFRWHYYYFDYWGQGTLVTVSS VL: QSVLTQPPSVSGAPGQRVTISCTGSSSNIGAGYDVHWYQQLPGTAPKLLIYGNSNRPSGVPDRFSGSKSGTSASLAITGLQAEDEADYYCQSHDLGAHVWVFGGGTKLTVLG	pEC50	8.97

Now for another entry.
Prompt: In one line, give reported pEC50 of the entry Fab #2 comprising a modified heavy chain constant region (Fab, V domains shown, Human Fab from the Ylanthia library; produced in HKB11 cells; also called Fab #2 mod; HC) VH: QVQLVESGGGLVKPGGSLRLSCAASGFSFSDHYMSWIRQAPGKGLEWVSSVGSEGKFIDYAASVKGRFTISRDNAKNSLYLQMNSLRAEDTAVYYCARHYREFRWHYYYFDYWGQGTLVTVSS VL: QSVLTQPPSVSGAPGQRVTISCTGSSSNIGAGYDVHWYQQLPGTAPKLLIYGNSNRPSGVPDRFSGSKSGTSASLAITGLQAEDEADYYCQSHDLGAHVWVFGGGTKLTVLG .
Response: 8.97
